- ASSAY_SUMMARY: Solubility test of AST-3424 in different solvents at 25 °C
- Assay type: physicochemical
- CONDITIONS_USED: water
METRIC: solubility

Measured solubility of C[C@H](OP(=O)(N1CC1)N1CC1)c1ccc([N+](=O)[O-])c(Oc2cccc(C(=O)N(C)C)c2)c1 : ~20 mg/mL

###

- ASSAY_SUMMARY: Solubility test of AST-3424 in different solvents at 25 °C
- Assay type: physicochemical
- CONDITIONS_USED: organic solvent or mixture, ethyl acetate
METRIC: solubility

Measured solubility of C[C@H](OP(=O)(N1CC1)N1CC1)c1ccc([N+](=O)[O-])c(Oc2cccc(C(=O)N(C)C)c2)c1 : > 1000 mg/mL

###

- ASSAY_SUMMARY: Solubility test of AST-3424 in different solvents at 25 °C
- Type: physicochemical
- CONDITIONS_USED: organic solvent or mixture, propylene glycol
METRIC: solubility

Measured solubility of C[C@H](OP(=O)(N1CC1)N1CC1)c1ccc([N+](=O)[O-])c(Oc2cccc(C(=O)N(C)C)c2)c1 : > 100 mg/mL
